assay: Cytotoxicity against human HuH7 cells infected with HCV con1 subgenomic replicon assessed as reduction in cell viability measured after 3 days by CellTiter-blue cell viability assay; type: cell-based, Huh-7

- molecule: "CC(C)OC(=O)[C@H](C)NP(=O)(OC[C@H]1O[C@@H](n2ccc(=O)[nH]c2=O)[C@](C)(F)[C@@H]1O)Oc1ccccc1 (stereo partly drawn)"
  CC50 at 72 h: "> 100 µM"
- molecule: "CC(C)OC(=O)[C@H](C)NP(=O)(N[C@@H](C)C(=O)OC(C)C)OC[C@@]1(F)O[C@@H](n2ccc(=O)[nH]c2=O)[C@](C)(O)[C@@H]1O"
  CC50 at 72 h: "> 100 µM"
- molecule: "CC(C)OC(=O)[C@H](C)N[P@](=O)(OC[C@@]1(F)O[C@@H](n2ccc(=O)[nH]c2=O)[C@](C)(O)[C@@H]1O)Oc1ccccc1"
  CC50 at 72 h: "> 99 µM"

----------
Target: DNA polymerase alpha (Homo sapiens)
Sequence (P09884 whole entry): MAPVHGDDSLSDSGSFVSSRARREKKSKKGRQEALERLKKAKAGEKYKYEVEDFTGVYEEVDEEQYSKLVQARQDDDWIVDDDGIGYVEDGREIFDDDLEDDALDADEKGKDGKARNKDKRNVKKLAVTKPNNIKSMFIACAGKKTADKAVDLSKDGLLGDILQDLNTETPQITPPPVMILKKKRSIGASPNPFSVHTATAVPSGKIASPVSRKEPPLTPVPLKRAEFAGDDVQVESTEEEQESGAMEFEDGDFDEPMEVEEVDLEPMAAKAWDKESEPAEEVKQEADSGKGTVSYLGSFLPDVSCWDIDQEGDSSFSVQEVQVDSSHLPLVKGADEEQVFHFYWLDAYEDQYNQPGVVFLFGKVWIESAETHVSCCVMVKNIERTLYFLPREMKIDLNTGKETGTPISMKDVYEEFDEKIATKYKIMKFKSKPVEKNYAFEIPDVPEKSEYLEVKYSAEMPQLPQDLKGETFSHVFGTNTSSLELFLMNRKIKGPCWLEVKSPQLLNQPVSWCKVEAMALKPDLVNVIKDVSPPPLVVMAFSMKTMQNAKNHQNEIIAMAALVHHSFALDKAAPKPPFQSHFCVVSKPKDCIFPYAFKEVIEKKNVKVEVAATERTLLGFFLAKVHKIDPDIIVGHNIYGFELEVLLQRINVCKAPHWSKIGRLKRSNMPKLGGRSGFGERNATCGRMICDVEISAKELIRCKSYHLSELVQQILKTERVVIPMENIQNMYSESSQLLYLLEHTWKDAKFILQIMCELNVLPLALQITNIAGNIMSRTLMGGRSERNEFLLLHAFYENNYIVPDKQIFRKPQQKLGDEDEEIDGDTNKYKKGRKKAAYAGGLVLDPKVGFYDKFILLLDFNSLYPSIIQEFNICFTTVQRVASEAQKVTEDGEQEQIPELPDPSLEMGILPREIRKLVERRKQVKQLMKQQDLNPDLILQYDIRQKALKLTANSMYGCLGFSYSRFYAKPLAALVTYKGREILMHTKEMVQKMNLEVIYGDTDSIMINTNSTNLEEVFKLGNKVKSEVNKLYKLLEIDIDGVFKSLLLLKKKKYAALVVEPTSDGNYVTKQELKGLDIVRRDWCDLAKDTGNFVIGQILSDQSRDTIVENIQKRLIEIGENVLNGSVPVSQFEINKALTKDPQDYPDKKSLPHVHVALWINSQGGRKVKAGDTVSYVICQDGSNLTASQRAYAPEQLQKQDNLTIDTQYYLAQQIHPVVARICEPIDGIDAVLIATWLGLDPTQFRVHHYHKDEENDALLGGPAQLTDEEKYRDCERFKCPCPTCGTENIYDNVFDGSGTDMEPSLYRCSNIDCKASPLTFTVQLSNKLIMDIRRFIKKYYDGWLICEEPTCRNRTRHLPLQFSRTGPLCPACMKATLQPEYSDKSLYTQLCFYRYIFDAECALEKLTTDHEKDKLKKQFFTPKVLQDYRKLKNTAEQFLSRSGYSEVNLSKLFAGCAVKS
Assay: Inhibition of human DNA polymerase-alpha assessed as reduction in [3H]dTTP incorporation in to activated calf thymus DNA substrate at 100 uM by scintillation counting method relative to control
Conditions: human DNA polymerase-alpha enzyme, probe [3H]dTTP

- compound: "C[C@]1(F)[C@H](n2ccc(=O)[nH]c2=O)O[C@](F)(COP(=O)(O)OP(=O)(O)OP(=O)(O)O)[C@H]1O"
  inhibition at 100 µM (%): 40.9
- compound: "C[C@@]1(F)[C@H](O)[C@@H](COP(=O)(O)OP(=O)(O)OP(=O)(O)O)O[C@H]1n1ccc(=O)[nH]c1=O"
  inhibition at 100 µM (%): 58.2
- compound: "C[C@@]1(O)[C@H](O)[C@@H](COP(=O)(O)OP(=O)(O)OP(=O)(O)O)O[C@H]1n1ccc(=O)[nH]c1=O"
  inhibition at 100 µM (%): 22.4
- compound: "C[C@]1(O)[C@H](n2ccc(=O)[nH]c2=O)O[C@](F)(COP(=O)(O)OP(=O)(O)OP(=O)(O)O)[C@H]1O [ADAFOSBUVIR 5'-TRIPHOSPHATE]"
  inhibition at 100 µM (%): 16.1
